# system: MAPK7 (human) (UniProt Q13164)
# Sequence (Q13164 whole entry, looked up): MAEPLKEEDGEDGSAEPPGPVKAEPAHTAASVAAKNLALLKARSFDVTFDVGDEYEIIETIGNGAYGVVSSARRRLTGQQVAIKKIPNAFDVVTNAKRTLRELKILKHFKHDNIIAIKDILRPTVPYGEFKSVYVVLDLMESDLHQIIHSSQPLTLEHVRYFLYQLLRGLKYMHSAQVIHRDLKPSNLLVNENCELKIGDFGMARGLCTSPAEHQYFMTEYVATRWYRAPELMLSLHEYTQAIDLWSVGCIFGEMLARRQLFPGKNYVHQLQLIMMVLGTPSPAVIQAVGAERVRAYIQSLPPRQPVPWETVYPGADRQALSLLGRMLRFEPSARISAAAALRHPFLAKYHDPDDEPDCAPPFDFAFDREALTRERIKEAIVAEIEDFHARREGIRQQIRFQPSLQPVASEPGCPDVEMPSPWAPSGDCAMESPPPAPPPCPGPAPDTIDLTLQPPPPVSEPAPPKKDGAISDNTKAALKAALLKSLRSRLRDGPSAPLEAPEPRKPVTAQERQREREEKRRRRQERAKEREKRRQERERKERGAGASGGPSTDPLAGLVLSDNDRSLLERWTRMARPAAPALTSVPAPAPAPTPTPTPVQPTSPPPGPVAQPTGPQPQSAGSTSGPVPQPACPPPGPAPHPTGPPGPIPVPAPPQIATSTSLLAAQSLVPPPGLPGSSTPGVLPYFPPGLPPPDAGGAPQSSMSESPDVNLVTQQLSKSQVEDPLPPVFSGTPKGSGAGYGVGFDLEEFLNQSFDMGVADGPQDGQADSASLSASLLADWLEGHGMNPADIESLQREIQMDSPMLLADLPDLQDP
# protocol summary: KINOMEscan competition binding
# condition: compound 10.0 µM
# kinase still bound, per cent of control values compiled below

{"compound": "CN1CCN(c2ccc(C(=O)Nc3ncc4c(n3)N(C)c3ccccc3C(=O)N4C)cc2)CC1", "display unit": "%", "kinase still bound, per cent of control": 65}
{"compound": "COc1cc(N2CCN(C)CC2)ccc1Nc1ncc2c(n1)N(C)c1ccccc1C(=O)N2", "display unit": "%", "kinase still bound, per cent of control": 0.5}
{"compound": "CN1C(=O)c2ccccc2N(C)c2nc(Nc3ccc(N4CCC(O)CC4)cn3)ncc21", "display unit": "%", "kinase still bound, per cent of control": 0}
{"compound": "COc1cc(N2CCN(C)CC2)ccc1Nc1ncc2c(n1)N(C(C)C)c1ccccc1C(=O)N2", "display unit": "%", "kinase still bound, per cent of control": 30}
{"compound": "CN1C(=O)[C@H]2CCC[C@H]2N(C2CCCC2)c2nc(Nc3ccc4ncccc4c3)ncc21", "display unit": "%", "kinase still bound, per cent of control": 0.25}
{"compound": "COc1cc(C(=O)NC2CCN(C)CC2)ccc1Nc1ncc2c(n1)N(C1CCCC1)[C@@H]1CCC[C@@H]1C(=O)N2C", "display unit": "%", "kinase still bound, per cent of control": 0.6}
{"compound": "COc1cc(N2CCC(C(N)=O)CC2)ccc1Nc1ncc2c(n1)N(C1CCCC1)[C@@H]1CCC[C@@H]1C(=O)N2C", "display unit": "%", "kinase still bound, per cent of control": 0.1}
{"compound": "CN1C(=O)[C@H]2CCC[C@H]2N(C2CCCC2)c2nc(Nc3ccc(C(N)=O)cc3)ncc21", "display unit": "%", "kinase still bound, per cent of control": 0.1}
{"compound": "COc1cc(N2CCN(C)CC2)ccc1Nc1ncc2c(n1)N(C)c1ccccc1C(=O)N2C", "display unit": "%", "kinase still bound, per cent of control": 0}
{"compound": "CC(C)Oc1cc(N2CCN(C)CC2)ccc1Nc1ncc2c(n1)N(C)c1ccccc1C(=O)N2", "display unit": "%", "kinase still bound, per cent of control": 29}
{"compound": "O=C1NC(=O)/C(=C/c2c[nH]c(=O)c(-c3ccc(N4CCNCC4)nc3)c2)S1", "display unit": "%", "kinase still bound, per cent of control": 48}
{"compound": "COc1cc(C(N)=O)ccc1Nc1ncc2c(n1)N(C1CCCC1)[C@@H]1CCC[C@@H]1C(=O)N2C", "display unit": "%", "kinase still bound, per cent of control": 0.15}
{"compound": "COc1cc(N2CCN(C)CC2)ccc1Nc1ncc2c(n1)N(C(C)C)c1ccccc1C(=O)N2C", "display unit": "%", "kinase still bound, per cent of control": 0}
{"compound": "COc1cc(N2CCN(C)CC2)ccc1Nc1ncc2c(n1)N(C)c1sccc1C(=O)N2C", "display unit": "%", "kinase still bound, per cent of control": 0.1}
{"compound": "CCOc1cc(N2CCC(O)CC2)ccc1Nc1ncc2c(n1)N(C)c1ccccc1C(=O)N2C", "display unit": "%", "kinase still bound, per cent of control": 0}
{"compound": "COc1cc(C(=O)NC2CCC(O)CC2)ccc1Nc1ncc2c(n1)N(C1CCCC1)[C@@H]1CCC[C@@H]1C(=O)N2C (stereo partly drawn)", "display unit": "%", "kinase still bound, per cent of control": 14}
{"compound": "CN1C(=O)c2ccccc2N(C)c2nc(Nc3ccc(N4CCC(O)CC4)cc3)ncc21", "display unit": "%", "kinase still bound, per cent of control": 0.25}
{"compound": "COc1cc(N2CCN(C)CC2)ccc1Nc1ncc2c(n1)Nc1ccccc1NC2=O", "display unit": "%", "kinase still bound, per cent of control": 100}

====

# system: DCLK1 (human) (UniProt O15075)
# Sequence (O15075 whole entry, looked up): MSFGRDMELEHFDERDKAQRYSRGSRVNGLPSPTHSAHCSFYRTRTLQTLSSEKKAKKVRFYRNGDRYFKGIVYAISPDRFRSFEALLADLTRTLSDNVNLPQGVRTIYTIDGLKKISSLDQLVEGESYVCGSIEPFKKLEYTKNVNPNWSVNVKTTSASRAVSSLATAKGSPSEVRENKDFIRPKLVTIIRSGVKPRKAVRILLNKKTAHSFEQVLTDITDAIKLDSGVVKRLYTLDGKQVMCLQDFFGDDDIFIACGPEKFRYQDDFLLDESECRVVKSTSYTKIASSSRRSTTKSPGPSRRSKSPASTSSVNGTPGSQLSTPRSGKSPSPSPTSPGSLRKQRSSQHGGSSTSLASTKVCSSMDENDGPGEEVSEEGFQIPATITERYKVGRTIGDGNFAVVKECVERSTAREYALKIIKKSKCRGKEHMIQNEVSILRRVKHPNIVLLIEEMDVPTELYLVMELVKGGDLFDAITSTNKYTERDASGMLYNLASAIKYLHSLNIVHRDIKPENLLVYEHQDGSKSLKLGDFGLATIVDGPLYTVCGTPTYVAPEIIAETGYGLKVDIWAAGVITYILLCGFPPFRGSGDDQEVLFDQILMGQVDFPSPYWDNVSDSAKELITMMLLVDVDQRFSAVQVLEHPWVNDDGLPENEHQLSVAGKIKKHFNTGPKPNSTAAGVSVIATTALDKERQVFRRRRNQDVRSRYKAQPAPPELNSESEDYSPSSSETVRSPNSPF
pKd: −log10 of the molar value.
metric: pKd

{"smiles text": "COc1cc(N2CCN(C)CC2)ccc1Nc1ncc2c(n1)N(C)c1ccccc1C(=O)N2", "system": "DCLK1 (human) (UniProt O15075)", "metric": "pKd", "measured value": 6.55}

====

Each entry below carries its recorded kinase still bound, per cent of control.
# system: MAPK15 (human)
# protocol summary: KINOMEscan competition binding
# condition: compound 10.0 µM

{"smiles text": "CS(=O)(=O)Nc1ccc(-c2cccc(/C=C3\\SC(=N)NC3=O)n2)cc1", "kinase still bound, per cent of control [%]": 22}
{"smiles text": "CS(=O)(=O)Nc1ccc(-c2ccc(/C=C3\\SC(=N)NC3=O)o2)cc1", "kinase still bound, per cent of control [%]": 0.65}
{"smiles text": "CS(=O)(=O)Nc1ccc(-c2ccc(/C=C3\\SC(=N)NC3=O)o2)c(O)c1", "kinase still bound, per cent of control [%]": 0.55}
{"smiles text": "N=C1NC(=O)/C(=C/c2ccc(-c3ccc(Cl)cc3)o2)S1", "kinase still bound, per cent of control [%]": 1.4}
{"smiles text": "CN1C(=O)c2ccccc2N(C)c2nc(Nc3ccc(N4CCC(O)CC4)cc3)ncc21", "kinase still bound, per cent of control [%]": 100}
{"smiles text": "O=C1NC(=O)/C(=C/c2c[nH]c(=O)c(-c3ccc(N4CCNCC4)nc3)c2)S1", "kinase still bound, per cent of control [%]": 0.5}

====

# Lookup of reported kinase still bound, per cent of control keyed by entry
# system: PIK3CA (human)
# protocol summary: KINOMEscan competition binding
# condition: compound 10.0 µM

{"smiles text": "O=C1NC(=O)/C(=C/c2c[nH]c(=O)c(-c3ccc(N4CCNCC4)nc3)c2)S1", "kinase still bound, per cent of control": "49%"}
{"smiles text": "CN1CCN(c2ccc(C(=O)Nc3ncc4c(n3)N(C)c3ccccc3C(=O)N4C)cc2)CC1", "kinase still bound, per cent of control": "100%"}
{"smiles text": "CN1C(=O)c2ccccc2N(C)c2nc(Nc3ccc(N4CCC(O)CC4)cc3)ncc21", "kinase still bound, per cent of control": "98%"}
{"smiles text": "NS(=O)(=O)c1ccc(-c2ccc(/C=C3\\SC(=O)NC3=O)o2)cc1", "kinase still bound, per cent of control": "15%"}
{"smiles text": "N=C1NC(=O)/C(=C/c2ccc(-c3ccc(C(N)=O)cc3O)o2)S1", "kinase still bound, per cent of control": "9.2%"}

====

# system: TYK2 JH2 pseudokinase (human)
# protocol summary: KINOMEscan competition binding
# condition: compound 10.0 µM
Measured kinase still bound, per cent of control values are reported for all entries that follow.
metric: kinase still bound, per cent of control

{"molecule": "NS(=O)(=O)c1ccc(-c2ccc(/C=C3\\C(=O)Nc4ccccc43)o2)cc1", "system": "TYK2 JH2 pseudokinase (human)", "measured value": "24%"}
{"molecule": "O=C1NC(=S)S/C1=C\\c1ccc(-c2cncc3ccccc23)o1", "system": "TYK2 JH2 pseudokinase (human)", "measured value": "5%"}
{"molecule": "COc1cc(N2CCN(C)CC2)ccc1Nc1ncc2c(n1)N(c1ccccc1)CCC(=O)N2", "system": "TYK2 JH2 pseudokinase (human)", "measured value": "28%"}
{"molecule": "COc1cc(N2CCC(O)CC2)ccc1Nc1ncc2c(n1)N1CCc3cccc(c31)C(=O)N2C", "system": "TYK2 JH2 pseudokinase (human)", "measured value": "70%"}
{"molecule": "N=C1NC(=O)/C(=C/c2ccc(-c3ccc(C(=O)Nc4ccc(N5CCNCC5)cc4)cc3O)o2)S1", "system": "TYK2 JH2 pseudokinase (human)", "measured value": "10%"}
{"molecule": "COc1cc(N2CCN(C)CC2)ccc1Nc1ncc2c(n1)N(C1CCCC1)C(C)CC(=O)N2 (centres undefined)", "system": "TYK2 JH2 pseudokinase (human)", "measured value": "32%"}
{"molecule": "Cc1cn(-c2cc(NC(=O)c3cccc4cc(-c5ccc(/C=C6\\SC(=N)NC6=O)o5)ccc34)cc(C(F)(F)F)c2)cn1", "system": "TYK2 JH2 pseudokinase (human)", "measured value": "2.6%"}
{"molecule": "N=C1NC(=O)/C(=C/c2ccc(-c3ccc4c(C(=O)Nc5ccc(N6CCNCC6)cc5)cccc4c3)o2)S1", "system": "TYK2 JH2 pseudokinase (human)", "measured value": "8.8%"}
{"molecule": "COc1cc(N2CCN(C)CC2)ccc1Nc1ncc2c(n1)N(C)c1sccc1C(=O)N2C", "system": "TYK2 JH2 pseudokinase (human)", "measured value": "43%"}

====

# system: UniProt Q16288
# Sequence (Q16288 whole entry, looked up): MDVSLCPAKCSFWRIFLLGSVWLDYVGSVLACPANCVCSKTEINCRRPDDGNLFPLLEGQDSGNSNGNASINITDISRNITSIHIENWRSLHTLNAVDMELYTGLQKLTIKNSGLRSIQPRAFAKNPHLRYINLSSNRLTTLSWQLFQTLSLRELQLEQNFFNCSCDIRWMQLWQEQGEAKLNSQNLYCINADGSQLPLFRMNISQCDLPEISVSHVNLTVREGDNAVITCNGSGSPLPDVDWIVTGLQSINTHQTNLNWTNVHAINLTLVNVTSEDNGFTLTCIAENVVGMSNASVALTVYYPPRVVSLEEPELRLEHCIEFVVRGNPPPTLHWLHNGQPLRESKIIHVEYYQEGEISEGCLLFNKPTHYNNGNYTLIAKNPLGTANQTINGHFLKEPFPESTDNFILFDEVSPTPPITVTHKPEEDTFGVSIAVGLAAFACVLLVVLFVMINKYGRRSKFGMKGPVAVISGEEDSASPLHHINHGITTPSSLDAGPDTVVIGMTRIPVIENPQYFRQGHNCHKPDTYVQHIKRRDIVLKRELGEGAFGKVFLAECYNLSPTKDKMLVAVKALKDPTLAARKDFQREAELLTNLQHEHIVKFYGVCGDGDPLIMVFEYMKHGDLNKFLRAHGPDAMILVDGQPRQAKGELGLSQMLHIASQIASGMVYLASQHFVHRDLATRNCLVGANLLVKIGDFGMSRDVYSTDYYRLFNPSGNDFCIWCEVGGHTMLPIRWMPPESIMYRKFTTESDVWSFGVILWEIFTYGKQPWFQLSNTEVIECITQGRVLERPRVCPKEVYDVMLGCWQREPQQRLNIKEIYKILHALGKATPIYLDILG
# protocol summary: KINOMEscan competition binding
# condition: compound 10.0 µM

{"smiles text": "CN1C(=O)c2ccccc2N(C)c2nc(Nc3ccc(N4CCC(O)CC4)cc3)ncc21", "kinase still bound, per cent of control": "82%"}
{"smiles text": "CN1CCN(c2ccc(C(=O)Nc3ncc4c(n3)N(C)c3ccccc3C(=O)N4C)cc2)CC1", "kinase still bound, per cent of control": "84%"}
{"smiles text": "CN1C(=O)c2ccccc2N(C)c2nc(NS(=O)(=O)c3ccc(N)cc3)ncc21", "kinase still bound, per cent of control": "72%"}
{"smiles text": "O=C1NC(=O)/C(=C/c2c[nH]c(=O)c(-c3ccc(N4CCNCC4)nc3)c2)S1", "kinase still bound, per cent of control": "88%"}

The values you see were collected from the kinase profiling compilation of Christmann-Franck et al. (2016).
